B1: CPEB3 Ribozyme (parent)
chain: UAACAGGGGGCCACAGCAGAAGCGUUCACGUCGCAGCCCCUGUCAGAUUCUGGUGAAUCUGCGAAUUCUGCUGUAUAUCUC

# Variants of: B1
# Assay procedure: self-cleavage, relative activity (ratio to wild type); higher = more cleavage; in vitro, sequencing
Recorded metric: self-cleavage
Give the value as a plain number.

Variant key | Meas value
U31A U80A | 0.61
U26C G33C | 0.13
G33C U72C | 0.19
C11G G55U | 0.55
C14G U51C | 1.16

Q. Consider the variant shown here: C29U U66A What is its recorded self-cleavage?
A. 0.22

Q. Now the same for A18C U58C
A. 0.3

Q. Now the same for U48C U51A
A. 0.42

Q. Now the same for A2G A77G
A. 0.64

Q. Now the same for C44A A65G
A. 0.2

Q. Now the same for U41A G53C
A. 0.23

Q. Now the same for G33A G52A
A. 0.3
